Biological target: Muscarinic acetylcholine receptors; M2 & M3 (Homo sapiens) (UniProt P20309+P08172)
Experiment: Binding affinity towards M3 receptor compared to M2 receptor.
Type: protein assay
measurement_type: Selectivity

A. C=C(c1ccc(S(=O)(=O)c2ccc(OC)cc2)cc1)C1CCN(C2CCN(S(=O)(=O)CC)CC2)CC1
B. C=C(c1ccc(S(=O)(=O)c2ccc(OC)cc2)cc1)C1CCN(C2CCN(C(=O)OCC)CC2)CC1
C. C=C(c1ccc(S(=O)(=O)c2ccc(OC)cc2)cc1)C1CCN(C2CCN(C(=O)OC)CC2)CC1
D. C=C(c1ccc(S(=O)(=O)c2ccc(OC)cc2)cc1)C1CCN(C2CCNCC2)CC1
E. C=C(c1ccc(S(=O)(=O)c2ccc(OC)cc2)cc1)C1CCN(C2CCN(S(=O)(=O)c3ccccc3)CC2)CC1
Q. Put the compounds in ascending order of Selectivity. Your task in answering is to list the labels in the requested order.
A. D, B, C, A, E

1. C=C(c1ccc(S(=O)(=O)c2ccc(OC)cc2)cc1)C1CCN(C2CCN(C(=O)Cc3ccccc3)CC2)CC1
2. C=C(c1ccc(S(=O)(=O)c2ccc(OC)cc2)cc1)C1CCN(C2CCN(S(=O)(=O)CCCC)CC2)CC1
Q. Quick one: lower Selectivity, 1 or 2 ? Record your answer as the label of the chosen record.
A. 1
(1: 48, 2: 405)
